# Tested on: E. coli Neumann
# assay remarks: MIC by serial dilution on Iso-Sensitest agar, E. coli Neumann
# Type: cell-based
# condition set: Escherichia coli, 37° C., about 20 hours, about 10^4 colony-forming particles
parameter: MIC

# compound, MIC
data = [
    ("CC(=O)NC[C@H]1CN(c2ccc3c(ccc(=O)n3CCO)c2)C(=O)O1 [Example 7]", "> 32 µg/mL"),
    ("CC(=O)NC[C@H]1CN(c2ccc3c(ccc(=O)n3C)c2)C(=O)O1 [Example 3]", "> 64 µg/mL"),
]

Lab note: compound CC(=O)NC[C@H]1CN(c2ccc3c(ccc(=O)n3S(C)(=O)=O)c2)C(=O)O1 [Example 12] tested on E. coli Neumann; recorded MIC was > 64 µg/mL

Lab note: compound CCn1c(=O)ccc2cc(N3C[C@H](CNC(C)=O)OC3=O)ccc21 [Example 4] tested on E. coli Neumann; recorded MIC was > 64 µg/mL

Lab note: compound CC(=O)NC[C@H]1CN(c2ccc3c(ccc(=O)n3C(C)C)c2)C(=O)O1 [Example 5] tested on E. coli Neumann; recorded MIC was > 64 µg/mL

---

# Test system: Staph 25701
parameter: MIC (µg/mL)

The cases that follow already have their MIC on record.
# smiles structure, subject of test, result unit, MIC
records = [
    ("CC(=O)NC[C@H]1CN(c2ccc3c(ccc(=O)n3C(C)C)c2)C(=O)O1", "Staph 25701", "µg/mL", 16),
    ("CC(=O)NC[C@H]1CN(c2ccc3c(ccc(=O)n3S(C)(=O)=O)c2)C(=O)O1", "Staph 25701", "µg/mL", 8),
    ("CC(=O)NC[C@H]1CN(c2ccc3c(ccc(=O)n3CCO)c2)C(=O)O1", "Staph 25701", "µg/mL", 8),
]

A. CC(=O)NC[C@H]1CN(c2ccc3c(ccc(=O)n3C)c2)C(=O)O1
B. CCn1c(=O)ccc2cc(N3C[C@H](CNC(C)=O)OC3=O)ccc21
Dear colleague, could you let me know whether A or B has the lower recorded MIC? Thanks. // output: label of the selected item
A
